Test system: 653999-131-R-J2-PDC complex spheroid viability;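 note: spheroids exposed to agents for seven days before readout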
Test: Anticancer human tumor 653999-131-R-J2-PDC patient-derived lung adenocarcinoma cell line growth inhibition; active = viability on the fitted dose curve at most 10% of control; inactive = the rest
Conditions: second compound 3.16 µM; first compound 0.0316 µM
Reply using exactly one outcome from true (1) (active), false (0) (inactive)

q: What outcome does the record of this test show for CC[C@@]1(O)C(=O)OCc2c1cc1n(c2=O)Cc2cc3c(CN(C)C)c(O)ccc3nc2-1 + NC1CCC(NC2CC2c2ccccc2)CC1 ?
a: false (0)

q: State the result this test recorded for COc1cc(Nc2ncc3c(n2)-c2ccc(Cl)cc2C(c2c(F)cccc2OC)=NC3)ccc1C(=O)O + NC1CCC(NC2CC2c2ccccc2)CC1 .
a: false (0)

q: Assay outcome for CC1(C)CCC(CN2CCN(c3ccc(C(=O)NS(=O)(=O)c4ccc(NCC5CCOCC5)c([N+](=O)[O-])c4)c(Oc4cnc5[nH]ccc5c4)c3)CC2)=C(c2ccc(Cl)cc2)C1 + NC1CCC(NC2CC2c2ccccc2)CC1 : what was it?
a: false (0)

q: Recorded call for Cn1ncnc1C1c2n[nH]c(=O)c3cc(F)cc(c23)NC1c1ccc(F)cc1 (stereo not drawn) + NC1CCC(NC2CC2c2ccccc2)CC1 ?
a: false (0)

q: Field: outcome | Entry: Nc1ncn(C2CC(O)C(CO)O2)c(=O)n1 (stereo not drawn) + NC1CC1c1ccc(-c2cccc(O)c2)cc1
a: false (0)

q: Please let me know the test result on file for O=C(C=Cn1cnc(-c2cc(C(F)(F)F)cc(C(F)(F)F)c2)n1)NNc1cnccn1 + NC1CC1c1ccc(-c2cccc(O)c2)cc1 .
a: false (0)

q: What did the test return for CC(C)CC(NC(=O)C(Cc1ccccc1)NC(=O)c1cnccn1)B(O)O (stereo not drawn) + NC1CCC(NC2CC2c2ccccc2)CC1 ?
a: true (1)

q: For CC1COCCN1c1cc(-c2ccnn2C)c2ccnc(-c3ccn[nH]3)c2n1 (stereo not drawn) + NC1CC1c1ccc(-c2cccc(O)c2)cc1 , which call appears in the assay record?
a: false (0)
